Data origin, for the record: patent US20250034173A1

- SYSTEM: KRAS G12C (Homo sapiens (Human), UniProt P01116, G12C)
- Sequence (P01116 other isoform, or with tags, fused parts or gaps G12C): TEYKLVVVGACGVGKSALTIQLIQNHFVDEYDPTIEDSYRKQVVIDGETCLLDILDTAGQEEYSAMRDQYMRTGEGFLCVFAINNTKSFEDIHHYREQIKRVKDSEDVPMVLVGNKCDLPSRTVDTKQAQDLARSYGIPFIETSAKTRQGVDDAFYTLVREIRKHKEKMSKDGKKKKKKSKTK
- ASSAY_DETAILS: SPR binding affinity and kinetics, GDP-loaded KRAS G12C
- RECORDED_CONDITIONS: GDP loaded protein, geomean
TEST_READOUT: pKd
One number for each entry, as −log10 of the molar value.

Batch request: pKd per item, same order as input.
1. C=C1CN2CCC[C@@]2(COc2nc3c4c(nc(-c5c(C)ccc6[nH]ncc56)c(F)c4n2)OC[C@@H]2COCCCN32)C1
2. C=C1CN2CCC[C@@]2(COc2nc3c4c(nc(-c5c(C6CC6)c(Cl)cc6[nH]ncc56)c(F)c4n2)OC[C@@H]2COCCCN32)C1

[8.71, 10.72]

Batch request: pKd per item, same order as input.
1. C=C1CN2CCC[C@@]2(COc2nc3c4c(nc(-c5c(Cl)ccc6[nH]ncc56)c(F)c4n2)OC[C@@H]2COCCCN32)C1
2. C=C1CN2CCC[C@@]2(COc2nc3c4c(nc(-c5c(Cl)c(Cl)cc6[nH]ncc56)c(F)c4n2)OC[C@@H]2COCCCN32)C1
3. Fc1c(-c2c(Cl)c(Cl)cc3[nH]ncc23)nc2c3c(nc(OC[C@@]45CCCN4C[C@H](F)C5)nc13)N1CCCC[C@H]1CO2

1. 9.05
2. 10.29
3. 8.37
